system-under-test: Toxin B (Clostridioides difficile)
assay-info: TcdB glycohydrolase inhibitors, primary screen, biochemical, single point, plate reader (AID 652162)
assay-setup: TcdB glycohydrolase enzymatic assay, at 9.99 µM
The whole screen tested about 350,000 compounds, of which about 840 (0.24%) were called active. Cut-off read from the data, not from the text of the source: active = inhibition above about 10%; inactive = the rest. The sample as a whole holds a higher share of actives than the screen did.
Choose one outcome from this list and give only that: true (1) for active, false (0) for inactive

Q: For `O=C(CCN1CCCCC1)N[C@H]1CC[C@H](CCNS(=O)(=O)c2ccc(F)cc2)O[C@@H]1CO` , what call appears in the results of this test?
A: false (0)

Q: Next record, please: `COCC(=O)N(C)C[C@@H]1Oc2ncc(-c3ccccc3OC)cc2C(=O)N([C@@H](C)CO)C[C@@H]1C`
A: false (0)

Q: Record: `C[C@H](CO)N1C[C@H](C)[C@H](CN(C)S(=O)(=O)c2cccs2)Oc2ccc(NC(=O)Nc3ccccc3)cc2C1=O`
A: false (0)

Q: Same lookup for `O=C(Nc1ccc(F)cc1)N[C@H]1CC[C@H](CCn2cc(-c3ccc(F)cc3)nn2)O[C@@H]1CO` , please.
A: false (0)

Q: Also check CCOc1ccc(C(CC(=O)O)NC(=O)C23CC4CC(CC(C4)C2)C3)cc1OC (stereo not drawn)
A: true (1)

Q: Same question for CCOc1ccc(C(CC(=O)O)n2cnnn2)cc1OC (stereo not drawn) please.
A: false (0)

Q: Thanks! And `CC(C)NC(=O)N(C)C[C@@H]1Oc2ccc(NS(=O)(=O)c3ccccc3)cc2C(=O)N([C@@H](C)CO)C[C@H]1C` ?
A: false (0)

Q: Same question, `C[C@@H]1CN([C@H](C)CO)C(=O)c2cc(NS(C)(=O)=O)ccc2O[C@@H]1CN(C)S(C)(=O)=O` this time
A: false (0)
